- experimental target: D(2) dopamine receptor (Rattus norvegicus)
- protocol text: Affinity towards dopamine D2 site was determined by competition studies using [3H]sulpiride in rat striatum.
- Format: tissue-based
measurement name: Ki (µM)
Only the number, expressed in µM, is required.

Prompt: Can you share its Ki? I mean this compound: `O=c1cc(-c2ccccc2)oc2ccc(OCCCCCCN3CCCCC3)cc12`
Completion: 4.5

* * *

- experimental target: D(2) dopamine receptor (Rattus norvegicus, UniProt P61169)
- Sequence (P61169 whole entry): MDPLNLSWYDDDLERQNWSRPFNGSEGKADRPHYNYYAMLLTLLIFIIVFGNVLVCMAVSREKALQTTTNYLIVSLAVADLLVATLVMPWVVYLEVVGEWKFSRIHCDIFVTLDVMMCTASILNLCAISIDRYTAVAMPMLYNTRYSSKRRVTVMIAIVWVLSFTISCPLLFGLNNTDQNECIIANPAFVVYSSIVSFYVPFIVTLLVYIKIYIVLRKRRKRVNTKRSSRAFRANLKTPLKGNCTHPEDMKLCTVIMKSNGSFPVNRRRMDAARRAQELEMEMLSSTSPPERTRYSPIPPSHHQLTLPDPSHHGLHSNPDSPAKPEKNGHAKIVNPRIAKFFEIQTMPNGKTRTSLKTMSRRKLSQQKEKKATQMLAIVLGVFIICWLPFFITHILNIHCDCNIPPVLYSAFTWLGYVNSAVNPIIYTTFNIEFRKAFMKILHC
- protocol text: Affinity towards dopamine receptor D2 was determined by competition studies using [3H]sulpiride in rat striatum.
- Assay type: tissue-based
Assign pKi to each entry below.
Interpret pKi as the negative base-10 log of the concentration measured in mol/L.

Prompt: Please look up its pKi: `O=c1cc(-c2ccccc2)oc2ccc(OCCCN3CCC(O)CC3)cc12`
Completion: 5.47

Prompt: Moving on to the next compound: `COc1c(-c2ccccc2)oc2ccc(OCCCCCCN3CCC(O)CC3)cc2c1=O`
Completion: 5.59

Prompt: Ok, now `CC1CCN(CCCCCCOc2ccc3oc(-c4ccccc4)cc(=O)c3c2)CC1`
Completion: 6.24

Prompt: Record: `Cc1c(C2CCCCC2)oc2ccc(OCCCCCCN3CCC(O)CC3)cc2c1=O`
Completion: 5.33

Prompt: For `O=c1cc(-c2ccccc2)oc2ccc(OCCCCCCN3CCCC3)cc12` then?
Completion: 5.64

* * *

- experimental target: D(2) dopamine receptor (Rattus norvegicus, UniProt P61169)
- protocol text: Affinity towards dopamine receptor D2 site was determined by competition studies using [3H]sulpiride in rat striatum.
- Type: tissue-based
# if measured Ki < 4 µM: true  # else: false

Prompt: In the record for `O=c1cc(-c2cccc(Cl)c2)oc2ccc(OCCCCCCN3CCC(O)CC3)cc12` , is Ki less than 4 µM?
Completion: false

Prompt: Now the same for `O=c1cc(C2CCC2)oc2ccc(OCCCCCCN3CCC(O)CC3)cc12`
Completion: false

Prompt: Can you handle `COc1cccc(-c2cc(=O)c3cc(OCCCCCN4CCC(O)CC4)ccc3o2)c1` next?
Completion: false

Prompt: What do you get for `O=c1cc(-c2ccccc2)oc2ccc(OCCCCCCN3CCN(c4ccccn4)CC3)cc12` ?
Completion: true

Prompt: Here is the next molecule: `CCOC(=O)C1CCN(CCCCCCOc2ccc3oc(-c4ccccc4)cc(=O)c3c2)CC1`
Completion: true

Prompt: Also need `O=c1cc(-c2ccccc2)oc2cccc(OCCCN3CCC(O)CC3)c12` , thanks.
Completion: false

Prompt: Let us now turn to `O=c1cc(-c2cccnc2)oc2ccc(OCCCCCCN3CCC(O)CC3)cc12`
Completion: true

Prompt: Next molecule: `O=c1cc(-c2ccccc2)oc2cccc(OCCCCN3CCC(O)CC3)c12`
Completion: false

Prompt: Query `COc1ccc(-c2cc(=O)c3cc(OCCCCCN4CCC(O)CC4)ccc3o2)cc1` next
Completion: false

* * *

- experimental target: D(2) dopamine receptor (Rattus norvegicus, UniProt P61169)
- protocol text: Affinity towards dopamine receptor D2 was determined by competition studies using [3H]sulpiride in rat striatum.
- Type: tissue-based
What pKi was measured for each of the following?
Remember the convention: pKi equals -log10 of concentration in molar.

Prompt: Give its pKi value. Item: `CN(C)CCCCCCCCCOc1ccc2oc(-c3ccccc3)cc(=O)c2c1`
Completion: 5.66

Prompt: Note, next up: `O=c1cc(-c2ccccc2)oc2ccc(OCCCCCCCN3CCC(O)CC3)cc12`
Completion: 5.19

Prompt: `O=c1cc(-c2ccncc2)oc2ccc(OCCCCCCN3CCCCC3)cc12` ?
Completion: 5.74

Prompt: What do you get for `O=c1cc(-c2ccccc2)oc2cc(OCCCCCCCCN3CCC(O)CC3)ccc12` ?
Completion: 5.55

Prompt: Can you check `O=c1cc(C2CCC2)oc2ccc(OCCCCCCN3CCCCC3)cc12` next?
Completion: 5.26

Prompt: Also `O=c1cc(-c2ccccc2)oc2ccc(OCCCCCCN3CCC(O)CC3)cc12` , if possible.
Completion: 5.43

Prompt: Try this compound next: `CN(C)CCCCCCCCOc1ccc2oc(-c3ccccc3)cc(=O)c2c1`
Completion: 5.55

Prompt: Moving on to `O=c1cc(-c2ccccc2)oc2ccc(OCCCCCCN3CCC(CCO)CC3)cc12`
Completion: 5.57

Prompt: What would you report for `O=c1cc(-c2cccs2)oc2ccc(OCCCCCCN3CCCCC3)cc12` ?
Completion: 5.85

Prompt: Same question, `CN(C)CCCCCCCCCCOc1ccc2oc(-c3ccccc3)cc(=O)c2c1` this time
Completion: 5.57

Prompt: Moving on to `O=c1cc(-c2ccccc2)oc2cc(OCCCCCCCN3CCC(O)CC3)ccc12`
Completion: 5.40

Prompt: Also `O=c1cc(C2CCCCC2)oc2ccc(OCCCCCCN3CCOCC3)cc12` , if possible.
Completion: 4.85

Prompt: Also, `CN(C)CCCCCOc1ccc2oc(-c3ccccc3)cc(=O)c2c1` please.
Completion: 5.09

Prompt: For O=c1cc(-c2ccccc2)oc2ccc(OCCCCCCN3CCCC(O)C3)cc12 (configuration not stated) then?
Completion: 5.26

Prompt: Can you handle `O=c1cc(-c2ccccc2)oc2cccc(OCCCCCCCN3CCC(O)CC3)c12` next?
Completion: 5.62

Prompt: `O=c1cc(-c2ccccc2)oc2ccc(OCCCCCN3CCC(O)CC3)cc12` ?
Completion: 5.29

Prompt: Follow-up item: `CC(C)Cc1cc(=O)c2cc(OCCCCCN3CCC(O)CC3)ccc2o1`
Completion: 4.89

Prompt: What would you report for `CN(C)CCOc1ccc2c(=O)cc(-c3ccccc3)oc2c1` ?
Completion: 4.89

Prompt: Another compound to look at: `O=c1cc(-c2ccccc2)oc2ccc(OCCCCN3CCC(O)CC3)cc12`
Completion: 5.17

Prompt: Input `O=c1cc(C2CCCCC2)oc2ccc(OCCCCCCN3CCCCC3)cc12`
Completion: 5.11

Prompt: Then this compound: O=c1cc(-c2ccccc2)oc2ccc(OCCCCCCN3CCNCC3c3ncccn3)cc12 (configuration not stated)
Completion: 5.89

Prompt: Moving on to `CN(C)CCCCCCCOc1ccc2oc(-c3ccccc3)cc(=O)c2c1`
Completion: 4.92

Prompt: And for `O=c1cc(-c2ccccc2)oc2c(OCCCCCCN3CCC(O)CC3)cccc12` ?
Completion: 6.03

Prompt: Now consider `CN(C)CCCCOc1ccc2oc(-c3ccccc3)cc(=O)c2c1` .
Completion: 5.38

Prompt: Would you kindly repeat that for `O=c1cc(-c2ccccc2)oc2cc(OCCCCCN3CCC(O)CC3)ccc12` ?
Completion: 5.23

Prompt: Now consider `O=c1cc(-c2ccccc2Cl)oc2ccc(OCCCCCCN3CCCCC3)cc12` and answer again.
Completion: 5.66

Prompt: What do you get for `CN(C)CCOc1ccc2oc(-c3ccccc3)cc(=O)c2c1` ?
Completion: 5.35

Prompt: Same again, this time with `O=c1cc(-c2cccnc2)oc2ccc(OCCCCCCN3CCCCC3)cc12`
Completion: 5.64

Prompt: Also need `O=c1cc(C2CCCC2)oc2ccc(OCCCCCCN3CCCCC3)cc12` , thanks.
Completion: 5.49

Prompt: Okay, and `O=c1cc(-c2ccccc2)oc2cc(OCCCCCCN3CCC(O)CC3)ccc12` ?
Completion: 5.22

Prompt: What about this compound? `O=c1cc(-c2ccccc2)oc2ccc(OCCCCCCCCN3CCC(O)CC3)cc12`
Completion: 5.05

Prompt: Same question, `O=c1cc(-c2ccccc2)oc2cc(OCCCCN3CCC(O)CC3)ccc12` this time
Completion: 6.00

* * *

For each record, write down the corresponding pKi.
- experimental target: UniProtKB P61169
- protocol text: Affinity towards dopamine receptor D2 site was determined by competition studies using [3H]sulpiride in rat striatum.
- Assay type: tissue-based
Just so you know, pKi here is -log10 of the concentration in molar units; reply with that number alone.

Prompt: For UniProtKB P61169, provide pKi of `O=c1cc(-c2ccccc2)oc2ccc(OCCCCCCN3CCCCCC3)cc12` please.
Completion: 5.64

Prompt: How about this molecule: `Cc1c(-c2ccccc2)oc2ccc(OCCCCCCN3CCC(O)CC3)cc2c1=O`
Completion: 5.57

Prompt: Do the same for `O=c1cc(-c2ccc(F)cc2)oc2ccc(OCCCCCCN3CCC(O)CC3)cc12` please
Completion: 5.42

Prompt: And for `O=c1cc(-c2ccncc2)oc2ccc(OCCCCCCN3CCC(O)CC3)cc12` ?
Completion: 5.16

Prompt: Repeat for the following molecule: `O=c1cc(-c2ccccc2)oc2ccc(OCCCCCCN3CCC(n4c(O)nc5ccccc54)CC3)cc12`
Completion: 6.66

Prompt: Could you do the same for `CN(C)CCCOc1ccc2oc(-c3ccccc3)cc(=O)c2c1` , please?
Completion: 5.44

Prompt: // query: `COc1cccc(-c2cc(=O)c3cc(OCCCCCCN4CCC(O)CC4)ccc3o2)c1`
Completion: 5.02

Prompt: Please do the same for `O=c1cc(C2CCCCC2)oc2ccc(OCCCCCN3CCC(O)CC3)cc12` as well.
Completion: 4.92

Prompt: // next record `O=c1cc(-c2ccccc2)oc2cccc(OCCCCCCN3CCC(O)CC3)c12`
Completion: 5.21

Prompt: Check `O=c1cc(-c2ccccc2Cl)oc2ccc(OCCCCCCN3CCC(O)CC3)cc12` too.
Completion: 5.39
